The following molecules have recorded IC50 on Acetylcholinesterase (Homo sapiens, UniProt P22303).
Sequence (P22303 whole entry): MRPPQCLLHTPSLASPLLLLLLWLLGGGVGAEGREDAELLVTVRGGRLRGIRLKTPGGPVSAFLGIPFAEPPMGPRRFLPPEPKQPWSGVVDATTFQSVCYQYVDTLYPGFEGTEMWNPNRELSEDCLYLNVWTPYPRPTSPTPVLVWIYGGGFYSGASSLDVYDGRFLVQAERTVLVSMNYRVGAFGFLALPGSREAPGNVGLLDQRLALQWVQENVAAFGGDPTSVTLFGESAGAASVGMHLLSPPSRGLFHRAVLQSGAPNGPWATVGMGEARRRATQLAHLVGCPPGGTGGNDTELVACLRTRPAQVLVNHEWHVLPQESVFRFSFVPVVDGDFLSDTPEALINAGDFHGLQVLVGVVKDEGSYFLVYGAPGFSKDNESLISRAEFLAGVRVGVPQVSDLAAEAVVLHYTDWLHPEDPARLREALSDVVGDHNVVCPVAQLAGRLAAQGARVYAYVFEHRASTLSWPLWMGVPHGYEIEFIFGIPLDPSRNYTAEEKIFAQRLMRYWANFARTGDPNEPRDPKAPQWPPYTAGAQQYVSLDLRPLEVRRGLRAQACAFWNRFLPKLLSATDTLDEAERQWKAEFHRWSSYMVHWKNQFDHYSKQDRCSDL

{"smilesRecord": "CN(C)CCC[C@@]1(c2ccc(F)cc2)OCc2cc(-c3nnc(-c4cccc([N+](=O)[O-])c4)[nH]3)ccc21", "measurementUnit": "µM", "resultOperator": "=", "IC50": 138}
{"smilesRecord": "CN(C)CCC[C@@]1(c2ccc(F)cc2)OCc2cc(-c3nnc(-c4ccc(I)cc4)[nH]3)ccc21", "measurementUnit": "µM", "resultOperator": ">", "IC50": 500}
{"smilesRecord": "CN(C)CCC[C@@]1(c2ccc(F)cc2)OCc2cc(-c3nnc(-c4ccc(O)cc4)[nH]3)ccc21", "measurementUnit": "µM", "resultOperator": "=", "IC50": 388}
{"smilesRecord": "CN(C)CCC[C@@]1(c2ccc(F)cc2)OCc2cc(-c3nnc(-c4ccc(F)cc4)[nH]3)ccc21", "measurementUnit": "µM", "resultOperator": "=", "IC50": 261}
